Test system: 233499-124-R-J3-PDC spheroids with HUVEC/MSC, viability
Assay: Anticancer human tumor 233499-124-R-J3-PDC patient-derived colon adenocarcinoma cell line growth inhibition [PI3K]
Settings: second compound 1 µM; first compound 0.1 µM; stronger effect = lower value
Task for the reader: assign each of the following compounds its reported viability, T/C.
Answers are plain numbers, in %.

Cn1nccc1Nc1nccc(-c2ccn(C(CO)c3ccc(Cl)c(F)c3)c(=O)c2)n1 (stereo unspecified) + COc1c(OCCCN2CCOCC2)ccc2c3n(c(=NC(=O)c4cnc(N)nc4)nc12)CCN3: 5.4
Cn1ncnc1[C@H]1c2n[nH]c(=O)c3cc(F)cc(c23)N[C@@H]1c1ccc(F)cc1 + CC(Nc1ccc2c(c1)OCCn1cc(N3C(=O)OCC3C(F)F)nc1-2)C(N)=O: 33
Cn1ncnc1[C@H]1c2n[nH]c(=O)c3cc(F)cc(c23)N[C@@H]1c1ccc(F)cc1 + CC(Nc1ncnc2nc[nH]c12)c1cc2cccc(Cl)c2c(=O)n1-c1ccccc1: 54.1
Cn1ncc(Cl)c1-c1cc(C(=O)NC(CN)Cc2cccc(F)c2)sc1Cl (stereo unspecified) + CC(Nc1ncnc2nc[nH]c12)c1cc2cccc(Cl)c2c(=O)n1-c1ccccc1: 90.9

Lab note: each compound below needs its viability, T/C filled in.
1. CC1(C)CCC(Nc2ncc(C(F)(F)F)c(-c3c[nH]c4c(P(C)(C)=O)c(C#N)ccc34)n2)CN1 (stereo unspecified) + CC(Nc1ccc2c(c1)OCCn1cc(N3C(=O)OCC3C(F)F)nc1-2)C(N)=O
2. CC(=O)c1c(C)c2cnc(Nc3ccc(N4CCNCC4)cn3)nc2n(C2CCCC2)c1=O + Cc1nc(NC(=O)N2CCCC2C(N)=O)sc1-c1ccnc(C(C)(C)C(F)(F)F)c1

29.3
28.3

---

Tested on: 233499-124-R-J3-PDC spheroids with HUVEC/MSC, viability
Assay: Anticancer human tumor 233499-124-R-J3-PDC cell line growth inhibition [PI3K];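 note: spheroids exposed to agents for seven days before readout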
Conditions: curve of first compound; second compound 0.0316 µM
From the text: Combinatorial screen of targeted agents with the PI3K inhibitors inavolisib, alpelisib, duvelisib, and copanlisib in multi-cell type tumor spheroids A high-throughput screen of multi-cell type tumor spheroids was designed to identify active combinations of targeted small molecules and PI3K pathway inhibitors. […] Compounds. […] If the clinical Cmax for an agent had not been determined, the highest concentration tested was 10 microM. […]
readout.name: IC50

C#Cc1c(F)ccc2cc(O)cc(-c3ncc4c(N5CC6CCC(C5)N6)nc(OCC56CCCN5CC(F)C6)nc4c3F)c12 (stereo unspecified) + Cc1nc(NC(=O)N2CCCC2C(N)=O)sc1-c1ccnc(C(C)(C)C(F)(F)F)c1: > 10 µM
Cn1nccc1Nc1nccc(-c2ccn(C(CO)c3ccc(Cl)c(F)c3)c(=O)c2)n1 (stereo unspecified) + CC(Nc1ccc2c(c1)OCCn1cc(N3C(=O)OCC3C(F)F)nc1-2)C(N)=O: > 10 µM
Cn1cnc2c(F)c(Nc3ccc(Br)cc3Cl)c(C(=O)NOCCO)cc21 + Cc1nc(NC(=O)N2CCCC2C(N)=O)sc1-c1ccnc(C(C)(C)C(F)(F)F)c1: 0.198 µM
CC(Cn1ccc(-c2ccc(C#N)c(Cl)c2)n1)NC(=O)c1cc(C(C)O)[nH]n1 (stereo unspecified) + CC(Nc1ncnc2nc[nH]c12)c1cc2cccc(Cl)c2c(=O)n1-c1ccccc1: > 10 µM

For each of the items listed, what is its IC50?
1. Cn1cnc2c(F)c(Nc3ccc(Br)cc3Cl)c(C(=O)NOCCO)cc21 + COc1c(OCCCN2CCOCC2)ccc2c3n(c(=NC(=O)c4cnc(N)nc4)nc12)CCN3
2. C=CC(=O)N1CCN(c2nc(=O)n(-c3c(C)ccnc3C(C)C)c3nc(-c4c(O)cccc4F)c(F)cc23)C(C)C1 (stereo unspecified) + COc1c(OCCCN2CCOCC2)ccc2c3n(c(=NC(=O)c4cnc(N)nc4)nc12)CCN3

1. 0.131 µM
2. > 10 µM

---

Test system: 233499-124-R-J3-PDC spheroids with HUVEC/MSC, viability
Assay: Anticancer human tumor 233499-124-R-J3-PDC cell line growth inhibition [PI3K];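 note: spheroids exposed to agents for seven days before readout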;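 for viability, T/C: percent viability relative to DMSO vehicle control taken as 100%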
Details: second compound 1 µM; first compound 0.1 µM; stronger effect = lower value
Consider the following compounds; for each one, report its viability, T/C.
Give bare numbers, in %.

CC(Cn1ccc(-c2ccc(C#N)c(Cl)c2)n1)NC(=O)c1cc(C(C)O)[nH]n1 (centres undefined) + COc1c(OCCCN2CCOCC2)ccc2c3n(c(=NC(=O)c4cnc(N)nc4)nc12)CCN3: 12.6
C#Cc1c(F)ccc2cc(O)cc(-c3ncc4c(N5CC6CCC(C5)N6)nc(OCC56CCCN5CC(F)C6)nc4c3F)c12 (centres undefined) + Cc1nc(NC(=O)N2CCCC2C(N)=O)sc1-c1ccnc(C(C)(C)C(F)(F)F)c1: 54.9
CCCS(=O)(=O)Nc1ccc(F)c(C(=O)c2c[nH]c3ncc(-c4ccc(Cl)cc4)cc23)c1F + Cc1nc(NC(=O)N2CCCC2C(N)=O)sc1-c1ccnc(C(C)(C)C(F)(F)F)c1: 71.8
CC(C)n1nc(-c2ccc3oc(N)nc3c2)c2c(N)ncnc21 + COc1c(OCCCN2CCOCC2)ccc2c3n(c(=NC(=O)c4cnc(N)nc4)nc12)CCN3: 2.93

For the 8 compounds below, give their viability, T/C values.
1. CC(C)n1nc(-c2ccc3oc(N)nc3c2)c2c(N)ncnc21 + CC(Nc1ccc2c(c1)OCCn1cc(N3C(=O)OCC3C(F)F)nc1-2)C(N)=O
2. Cn1nccc1Nc1nccc(-c2ccn(C(CO)c3ccc(Cl)c(F)c3)c(=O)c2)n1 (centres undefined) + CC(Nc1ccc2c(c1)OCCn1cc(N3C(=O)OCC3C(F)F)nc1-2)C(N)=O
3. CC(C)n1nc(-c2ccc3oc(N)nc3c2)c2c(N)ncnc21 + Cc1nc(NC(=O)N2CCCC2C(N)=O)sc1-c1ccnc(C(C)(C)C(F)(F)F)c1
4. Cn1ncc(Cl)c1-c1cc(C(=O)NC(CN)Cc2cccc(F)c2)sc1Cl (centres undefined) + Cc1nc(NC(=O)N2CCCC2C(N)=O)sc1-c1ccnc(C(C)(C)C(F)(F)F)c1
5. C=CC(=O)N1CCN(c2nc(=O)n(-c3c(C)ccnc3C(C)C)c3nc(-c4c(O)cccc4F)c(F)cc23)C(C)C1 (centres undefined) + CC(Nc1ccc2c(c1)OCCn1cc(N3C(=O)OCC3C(F)F)nc1-2)C(N)=O
6. CC(Cn1ccc(-c2ccc(C#N)c(Cl)c2)n1)NC(=O)c1cc(C(C)O)[nH]n1 (centres undefined) + Cc1nc(NC(=O)N2CCCC2C(N)=O)sc1-c1ccnc(C(C)(C)C(F)(F)F)c1
7. CC(C)NCC(C(=O)N1CCN(c2ncnc3c2C(C)CC3O)CC1)c1ccc(Cl)cc1 (centres undefined) + Cc1nc(NC(=O)N2CCCC2C(N)=O)sc1-c1ccnc(C(C)(C)C(F)(F)F)c1
8. Cn1ncc(Cl)c1-c1cc(C(=O)NC(CN)Cc2cccc(F)c2)sc1Cl (centres undefined) + CC(Nc1ccc2c(c1)OCCn1cc(N3C(=O)OCC3C(F)F)nc1-2)C(N)=O

1: 12.3; 2: 58.6; 3: 25.2; 4: 74.3; 5: 67.7; 6: 76.5; 7: 75; 8: 61.8

Parameters: items (list). Returns: viability, T/C for each item.
1. CC(Cn1ccc(-c2ccc(C#N)c(Cl)c2)n1)NC(=O)c1cc(C(C)O)[nH]n1 (centres undefined) + CC(Nc1ccc2c(c1)OCCn1cc(N3C(=O)OCC3C(F)F)nc1-2)C(N)=O
2. CCCS(=O)(=O)Nc1ccc(F)c(C(=O)c2c[nH]c3ncc(-c4ccc(Cl)cc4)cc23)c1F + CC(Nc1ncnc2nc[nH]c12)c1cc2cccc(Cl)c2c(=O)n1-c1ccccc1

62
99.7

---

System: 233499-124-R-J3-PDC spheroids with HUVEC/MSC, viability
Test: Anticancer human tumor 233499-124-R-J3-PDC cell line growth inhibition [PI3K];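 note: spheroids exposed to agents for seven days before readout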;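 for viability, T/C: percent viability relative to DMSO vehicle control taken as 100%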
Settings: second compound 0.316 µM; first compound 3.16 µM; stronger effect = lower value
Would you kindly list viability, T/C for each of these compounds?
Give bare numbers, in %.

C[C@@H](NC(=O)c1ncnc(N)c1Cl)c1ncc(C(=O)Nc2cc(C(F)(F)F)c(Cl)cn2)s1 + Cc1nc(NC(=O)N2CCCC2C(N)=O)sc1-c1ccnc(C(C)(C)C(F)(F)F)c1: 92.8
C#Cc1c(F)ccc2cc(O)cc(-c3ncc4c(N5CC6CCC(C5)N6)nc(OCC56CCCN5CC(F)C6)nc4c3F)c12 (centres undefined) + COc1c(OCCCN2CCOCC2)ccc2c3n(c(=NC(=O)c4cnc(N)nc4)nc12)CCN3: 13.3
CC1(C)CCC(CN2CCN(c3ccc(C(=O)NS(=O)(=O)c4ccc(NCC5CCOCC5)c([N+](=O)[O-])c4)c(Oc4cnc5[nH]ccc5c4)c3)CC2)=C(c2ccc(Cl)cc2)C1 + Cc1nc(NC(=O)N2CCCC2C(N)=O)sc1-c1ccnc(C(C)(C)C(F)(F)F)c1: 88.9

Next up:
Please look up its viability, T/C: Cn1ncc(Cl)c1-c1cc(C(=O)NC(CN)Cc2cccc(F)c2)sc1Cl (centres undefined) + Cc1nc(NC(=O)N2CCCC2C(N)=O)sc1-c1ccnc(C(C)(C)C(F)(F)F)c1
62.1
